# Assay Protocol: physchem
# Run Conditions: DMSO, pH 4
# Description: Solubility of the compound in DMSO at pH 4 incubated for 24 hrs by LC-UV method
Entries and their solubility at 24 h
Measure Name: solubility at 24 h (µg/mL)

{"Mol Smiles": "C[C@@](CCN1Cc2cc(C#Cc3ccc(C4(O)COC4)cc3)cn2C1=O)(C(=O)NO)S(C)(=O)=O", "Unit Name": "µg/mL", "Readout Number": 195}
{"Mol Smiles": "C[C@@](CCN1Cc2cc(C#Cc3ccc(CN4CCOCC4)cc3)cn2C1=O)(C(=O)NO)S(C)(=O)=O", "Unit Name": "µg/mL", "Readout Number": 802}
{"Mol Smiles": "CC(C)(O)c1ccc(C#Cc2cc3c(s2)C(=O)N(CC[C@](C)(C(=O)NO)S(C)(=O)=O)C3)cc1", "Unit Name": "µg/mL", "Readout Number": 69}
{"Mol Smiles": "C[C@@](CCN1Cc2cc(C#CC#C[C@@H]3C[C@H]3CO)sc2C1=O)(C(=O)NO)S(C)(=O)=O", "Unit Name": "µg/mL", "Readout Number": 464}
{"Mol Smiles": "C[C@@](CCN1Cc2cc(C#Cc3ccc([C@H](O)CO)cc3)cn2C1=O)(C(=O)NO)S(C)(=O)=O", "Unit Name": "µg/mL", "Readout Number": 167}
{"Mol Smiles": "C[C@@](CCN1Cc2cc(C#CC#C[C@H]3C[C@@H]3CO)cn2C1=O)(C(=O)NO)S(C)(=O)=O", "Unit Name": "µg/mL", "Readout Number": 600}
{"Mol Smiles": "C[C@@](CCN1Cc2cc(C#CC#CC3(N)CC3)cn2C1=O)(C(=O)NO)S(C)(=O)=O.Cl", "Unit Name": "µg/mL", "Readout Number": 571}
{"Mol Smiles": "CC(C)(O)C#CC#Cc1cc2n(c1)C(=O)N(CC[C@](C)(C(=O)NO)S(C)(=O)=O)C2", "Unit Name": "µg/mL", "Readout Number": 398}
{"Mol Smiles": "C[C@@](CCN1Cc2cc(C#CC#CCOC(=O)N3CCC(O)CC3)cn2C1=O)(C(=O)NO)S(C)(=O)=O", "Unit Name": "µg/mL", "Readout Number": 641}
{"Mol Smiles": "C[C@@](CCN1Cc2cc(C#CC#C[C@@H]3C[C@H]3CO)cn2C1=O)(C(=O)NO)S(C)(=O)=O", "Unit Name": "µg/mL", "Readout Number": 600}
{"Mol Smiles": "CC(C)(O)c1ccc(C#Cc2cc3n(c2)C(=O)N(CC[C@](C)(C(=O)NO)S(C)(=O)=O)C3)cc1", "Unit Name": "µg/mL", "Readout Number": 70}

---

# System: Escherichia coli
# Assay Protocol: Antibacterial activity against Escherichia coli infected in cyclophosphamide-induced NMRI/ICR CD-1 mouse model of neutropenic thigh infection assessed as reduction in thigh bacterial load at 150 mg/kg, sc measured after 22 hrs relative to control
# Format: functional

{"Mol Smiles": "C[C@@](CCN1Cc2cc(C#CC#CC3(CO)CC3)cn2C1=O)(C(=O)NO)S(C)(=O)=O", "fold change (FC)": 0.8}
{"Mol Smiles": "C[C@@](CCN1Cc2cc(C#CC#CC3(N)CC3)cn2C1=O)(C(=O)NO)S(C)(=O)=O.Cl", "fold change (FC)": 1.8}
{"Mol Smiles": "C[C@@](CCN1Cc2cc(C#CC#C[C@H]3C[C@@H]3CO)cn2C1=O)(C(=O)NO)S(C)(=O)=O", "fold change (FC)": 0.8}
{"Mol Smiles": "C[C@@](CCN1Cc2cc(C#Cc3ccc([C@H](O)CO)cc3)cn2C1=O)(C(=O)NO)S(C)(=O)=O", "fold change (FC)": 0.4}
